The origin of these recorded values is patent US9440982B2.

# tested on: OX1 (Homo sapiens, UniProt O43613)
# Construct: expressed in transfected cells; host or cells: CHO (CHO-OX1, kept under selection antibiotic)
# Sequence (O43613 whole entry): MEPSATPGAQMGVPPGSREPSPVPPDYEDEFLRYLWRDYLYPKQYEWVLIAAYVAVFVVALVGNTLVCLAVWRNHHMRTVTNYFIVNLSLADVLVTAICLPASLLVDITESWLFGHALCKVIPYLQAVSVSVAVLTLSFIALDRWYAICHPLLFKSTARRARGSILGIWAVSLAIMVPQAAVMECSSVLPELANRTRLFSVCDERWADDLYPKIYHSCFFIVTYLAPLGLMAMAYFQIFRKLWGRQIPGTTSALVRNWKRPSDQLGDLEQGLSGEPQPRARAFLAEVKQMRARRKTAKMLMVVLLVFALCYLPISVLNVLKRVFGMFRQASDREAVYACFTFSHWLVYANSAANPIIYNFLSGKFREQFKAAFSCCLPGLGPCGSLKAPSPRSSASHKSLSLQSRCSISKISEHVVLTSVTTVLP
# assay comment: Orexin receptor cell-based functional assay, [Ca2+]i by FLIPR, CHO-OX1 cells
# applied conditions: CHO-OX1 cells, [Ca2+]i by FLIPR, antagonist dose-range 0.1 nM-10 μM, EC90 of OXA; read-out: OX1
pIC50: −log10 of the molar value.
result type: pIC50

Illustrative cases are given below, each with its answer.
INSERT INTO assay_data (molecule, recorded_measurement) VALUES
  ('Cc1ccc(F)c(C(=O)N2CCC[C@@H](C)[C@H]2CNc2ncc(C(F)(F)F)cn2)c1-n1nccn1 [Example A353]', 8.40),
  ('Cc1ccc(-n2nccn2)c(C(=O)N2CCC[C@@H](C)[C@H]2CNc2ncc(F)cn2)c1 [Example A171]', 6.43),
  ('Cc1ccc(-n2nccn2)c(C(=O)N2CCC[C@@H](C)[C@H]2CNc2nc3cc(Cl)ccc3o2)c1 [Example A11]', 8.52),
  ('Cc1ccc(-c2ncccn2)c(C(=O)N2CCC[C@@H](C)[C@H]2CNc2ccc(C#N)cn2)c1 [Example A139]', 6.85),
  ('Cc1ccc(-c2ncccn2)c(C(=O)N2CCC[C@@H](C)[C@H]2CNc2ccc(C(F)(F)F)cn2)c1F [Example A320]', 8.70);

A. Cc1cc(C(=O)N2CCC[C@@H](C)[C@H]2CNc2ncc(C(F)(F)F)cn2)c(-n2nccn2)cc1F [Example A369]
B. Cc1ccc(-c2ncccn2)c(C(=O)N2CCC[C@@H](C)[C@H]2CNc2ccc(C(F)(F)F)nn2)n1 [Example A185]
// which entry has the larger pIC50 value, A or B ? Please indicate the selected item by its label.
A
(A: 8.40, B: 7.34)
